Reference source: BindingDB's records for doi:10.1021/np1002065

Molecular target: Nuclear factor NF-kappa-B p105 subunit (Homo sapiens, UniProt P19838)
Sequence (P19838 whole entry): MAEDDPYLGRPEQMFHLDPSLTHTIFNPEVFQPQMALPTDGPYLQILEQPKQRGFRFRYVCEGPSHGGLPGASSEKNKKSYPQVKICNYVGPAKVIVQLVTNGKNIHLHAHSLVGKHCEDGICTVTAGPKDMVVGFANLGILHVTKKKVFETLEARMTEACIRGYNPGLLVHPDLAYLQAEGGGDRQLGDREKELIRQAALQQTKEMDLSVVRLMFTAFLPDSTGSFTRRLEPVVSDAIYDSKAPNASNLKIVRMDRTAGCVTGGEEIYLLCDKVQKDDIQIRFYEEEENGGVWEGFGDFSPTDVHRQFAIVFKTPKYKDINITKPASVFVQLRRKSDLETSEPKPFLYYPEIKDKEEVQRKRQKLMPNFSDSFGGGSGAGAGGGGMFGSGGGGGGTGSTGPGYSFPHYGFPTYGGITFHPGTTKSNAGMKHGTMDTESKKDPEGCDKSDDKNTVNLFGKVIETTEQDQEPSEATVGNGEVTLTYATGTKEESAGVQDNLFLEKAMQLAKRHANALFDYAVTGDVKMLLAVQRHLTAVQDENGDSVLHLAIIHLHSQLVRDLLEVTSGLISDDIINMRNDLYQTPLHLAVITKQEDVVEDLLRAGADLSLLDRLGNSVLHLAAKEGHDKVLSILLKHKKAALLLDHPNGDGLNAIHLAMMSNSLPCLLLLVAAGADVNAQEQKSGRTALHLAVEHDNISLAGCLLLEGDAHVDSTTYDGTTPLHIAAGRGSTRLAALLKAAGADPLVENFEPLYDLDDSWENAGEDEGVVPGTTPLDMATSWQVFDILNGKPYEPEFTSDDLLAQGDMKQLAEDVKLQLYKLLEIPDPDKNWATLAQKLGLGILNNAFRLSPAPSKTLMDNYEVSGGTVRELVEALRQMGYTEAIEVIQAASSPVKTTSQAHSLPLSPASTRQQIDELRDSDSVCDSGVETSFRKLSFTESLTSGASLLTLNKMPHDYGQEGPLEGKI
Assay: Inhibition of NFkappa p50 isolated from nuclear extract of human HeLa cells assessed as blockade of binding to biotinylated consesus sequence by chemiluminescence assay
pIC50: −log10 of the molar value.
# pIC50 annotations

INPUT: // lookup pIC50 for CC1(C)C=Cc2cc3c(cc2O1)Oc1cc(O)ccc1C(=O)C3
OUTPUT: < 5.00

INPUT: // lookup pIC50 for C=C(C)[C@H]1Cc2c(oc3c4c(cc(=O)c-3c2O)OC(C)(C)C=C4)-c2c(O)cc(O)c(O)c21
OUTPUT: 5.43

Read the next record carefully.
INPUT: // lookup pIC50 for C=C(C)[C@H]1Cc2c(oc3cc(O)c(CC=C(C)C)c(=O)c-3c2O)C2=C1C(=O)C(=O)C(CC=C(C)C)C2=O (stereo partly drawn)
OUTPUT: < 5.00
